# No of monkeys per entry
Assay: Number of animals showing dyskinesias was determined in haloperidol sensitized 4 cebus monkeys after (po) administration of 40 mg/kg
Assay type: functional
Field format: numeric only.

Output No of monkeys of OCCOCCN1CCN(C2=Nc3cc(F)ccc3Sc3ccccc32)CC1
0

Given the molecule OCC1COCC(CN2CCN(C3=Nc4ccccc4Sc4ccccc43)CC2)O1 (centres undefined) , write its reported No of monkeys.
4

Entry OCCOCCN1CCN(C2=Nc3ccccc3Sc3ccccc32)CC1 needs its No of monkeys filled in; supply it.
0

Quote No of monkeys reported for OCCOCCN1CCN(C2=Nc3cc(Cl)ccc3Sc3ccccc32)CC1 please.
0

###

Tested on: Mus musculus
Test: Antagonism of apomorphine induced climbing was determined in female swiss -Webster mice after (ip) administration of 10 mg/kg
Type: functional
Recorded metric: Activity
Give a plain numeric answer without units written out.

1) OCCN1CCN(C2=Nc3ccccc3Sc3ccccc32)CC1; 24

Complete the entry with Activity for c1ccc2c(c1)N=C(N1CCN(CC3CCCO3)CC1)c1ccccc1S2 (stereo unspecified)
9

# return recorded Activity for entry c1ccc2c(c1)N=C(N1CCN(CC3COCCO3)CC1)c1ccccc1S2 (stereo unspecified)
1

Check the records and state Activity for CN1CCN(C2=Nc3ccccc3Sc3ccccc32)CC1
3

Consider the molecule CN1CCN(C2=Nc3ccccc3Oc3ccccc32)CC1 . State its measured Activity.
2

Identify measured Activity associated with COC(CO)CN1CCN(C2=Nc3ccccc3Sc3ccccc32)CC1 (stereo unspecified)
8

###

System: Mus musculus
Assay: Antagonism of apomorphine induced swimming was determined in female swiss -Webster mice after (ip) administration of 80 mg/kg
Format: functional
Recorded metric: Activity

Consider the worked cases shown below.
1. OCCOCCOCCN1CCN(C2=Nc3ccccc3Sc3ccccc32)CC1; <12
2. COCC(CO)N1CCN(C2=Nc3ccccc3Sc3ccccc32)CC1 (stereo not drawn); 0

Now look at this one.
// Input: COC[C@H](CN1CCN(C2=Nc3ccccc3Sc3ccccc32)CC1)OC . Output its Activity only.
13

###

Test system: Mus musculus
Assay: Antagonism of apomorphine induced climbing was determined in female swiss -Wbster mice after (po) administration of 40 mg/kg
Assay type: functional
Recorded metric: Activity
Give your answer as a number; write no unit.

1. OCCOCCN1CCN(C2=Nc3cc(Cl)ccc3Cc3ccccc32)CC1; 26

Given the compound OCCOCCN1CCN(C2=Nc3ccc(O)cc3Cc3ccccc32)CC1 , write its reported Activity.
17

Retrieve Activity measured for OCCOCCN1CCN(C2=Nc3cc(Cl)ccc3Sc3ccccc32)CC1 and print it.
24

Complete the entry with Activity for OCCOCCN1CCN(C2=Nc3ccccc3Sc3ccccc32)CC1 [QUETIAPINE]
14

// Input: OCCOCCN1CCN(C2=Nc3ccccc3Cc3ccccc32)CC1 . Output its Activity only.
17

###

Target: D(2) dopamine receptor (Rattus norvegicus)
Sequence (P61169 whole entry): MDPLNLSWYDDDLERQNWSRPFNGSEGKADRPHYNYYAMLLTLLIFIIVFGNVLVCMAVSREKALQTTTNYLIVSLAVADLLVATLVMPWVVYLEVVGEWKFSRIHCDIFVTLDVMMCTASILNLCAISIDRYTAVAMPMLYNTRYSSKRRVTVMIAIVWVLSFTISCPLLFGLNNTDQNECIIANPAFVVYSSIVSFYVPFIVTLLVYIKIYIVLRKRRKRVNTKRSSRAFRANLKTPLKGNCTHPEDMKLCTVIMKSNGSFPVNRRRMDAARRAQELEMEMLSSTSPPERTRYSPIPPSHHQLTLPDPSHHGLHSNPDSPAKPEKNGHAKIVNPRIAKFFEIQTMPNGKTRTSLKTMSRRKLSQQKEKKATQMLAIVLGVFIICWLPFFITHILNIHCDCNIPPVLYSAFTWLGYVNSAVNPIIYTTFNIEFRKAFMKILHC
Experiment: Inhibition of spiropiperidone binding at dopamine receptor D2 of rat.
Each record's class is read off its IC50 using these ranges: low class (below 400 nM), middle class (400 nM to below 1000 nM), high class (1000 nM or more)

Reference set (6 entries):
1) COCC(CN1CCN(C2=Nc3ccccc3Sc3ccccc32)CC1)OC (configuration not stated); middle class
2) CN1CCN(C2=Nc3ccc(F)cc3Sc3ccccc32)CC1; middle class
3) c1ccc2c(c1)N=C(N1CCN(CC3CCCO3)CC1)c1ccccc1S2 (configuration not stated); middle class
4) COCC(CO)N1CCN(C2=Nc3ccccc3Sc3ccccc32)CC1 (configuration not stated); high class
5) CN1CCN(C2=Nc3ccc(O)cc3Sc3ccccc32)CC1; low class
6) OCCOCCN1CCN(C2=Nc3ccc(O)cc3Sc3ccccc32)CC1; low class

Bin? CN1CCN(C2=Nc3ccccc3Cc3ccccc32)CC1
high class

###

System: Mus musculus
Assay: Antagonism of apomorphine induced swimming was determined in female swiss -Wbster mice after (ip) administration of 80 mg/kg
Type: functional
Recorded Activity for the following compounds

1. OCCOCCN1CCN(C2=Nc3cc(O)ccc3Sc3ccccc32)CC1; 0
2. OCCOCCN1CCN(C2=Nc3ccc(F)cc3Sc3ccccc32)CC1; 18
3. OCCOCCN1CCN(C2=Nc3ccccc3Oc3ccccc32)CC1; 8

# evaluate next
Give the reported value of Activity for this record: OCCOCCN1CCN(C2=Nc3cccc(F)c3Sc3ccccc32)CC1
0

###

Activity reference
Tested on: Mus musculus
Experiment: Antagonism of apomorphine induced swimming was determined in female swiss -Webster mice after (ip) administration of 80 mg/kg
Assay type: functional

1) OCC1COCC(CN2CCN(C3=Nc4ccccc4Sc4ccccc43)CC2)O1 (stereo not given); 27
2) COCC(COC)N1CCN(C2=Nc3ccccc3Sc3ccccc32)CC1; 0
3) [O-][S+]1c2ccccc2N=C(N2CCN(CCOCCO)CC2)c2ccccc21 (stereo not given) [SULFOXIDE METABOLITE]; 0
4) c1ccc2c(c1)N=C(N1CCN(CC3CCCO3)CC1)c1ccccc1S2 (stereo not given); 37

Attention now shifts to the item below.
// fetch Activity; item: O=S1(=O)c2ccccc2N=C(N2CCN(CCOCCO)CC2)c2ccccc21 ; system: Mus musculus
0

###

System: Mus musculus
Assay: Antagonism of apomorphine induced climbing was determined in female swiss -Webster mice after (ip) administration of 20 mg/kg
Assay type: functional
Lab note: anything with Activity below 2 is marked 1.0; values at 2 or higher are marked 0.0.

1) c1ccc2c(c1)N=C(N1CCN(CC3COCCO3)CC1)c1ccccc1S2 (stereo not drawn); 1.0
2) CN1CCN(C2=Nc3ccccc3Cc3ccccc32)CC1 [PERLAPINE]; 1.0
3) OCC1COCC(CN2CCN(C3=Nc4ccccc4Sc4ccccc43)CC2)O1 (stereo not drawn); 0.0

Please state whether Activity is below 2 for CN1CCN(C2=Nc3ccc(O)cc3Sc3ccccc32)CC1
1.0

Identify whether the compound OCCOCCOCCN1CCN(C2=Nc3ccccc3Sc3ccccc32)CC1 records Activity below 2.
0.0

Is Activity of CN1CCN(C2=Nc3ccccc3Oc3ccccc32)CC1 strictly below 2?
1.0

For this compound, is Activity lower than 2? COCC(CCN1CCN(C2=Nc3ccccc3Sc3ccccc32)CC1)OC (stereo not drawn)
1.0

Field: below-cutoff. Rule: recorded Activity strictly less than 2. Subject: OCCN1CCN(C2=Nc3ccccc3Sc3ccccc32)CC1
0.0

Given CN1CCN(C2=Nc3ccccc3Sc3ccccc32)CC1 , is recorded Activity strictly lower than 2?
1.0

Strictly below 2 in Activity? CN1CCN(C2=Nc3cc(Cl)ccc3Nc3ccccc32)CC1 [CLOZAPINE]
0.0

###

Test system: Mus musculus
Assay: Antagonism of apomorphine induced climbing was determined in female swiss -Webster mice after (ip) administration of 5 mg/kg
Assay type: functional
Listed here: items and their measured Activity.
Lab note: record just the number, no unit beside it.

Examples with answers:
1. COCC(CCN1CCN(C2=Nc3ccccc3Sc3ccccc32)CC1)OC (stereo not drawn); 21
2. CN1CCN(C2=Nc3ccccc3Oc3ccccc32)CC1; 13

Okay, now this compound:
For the compound COCC(CN1CCN(C2=Nc3ccccc3Sc3ccccc32)CC1)OC (stereo not drawn) , give its measured Activity value.
5

###

Tested on: Mus musculus
Assay: Antagonism of apomorphine induced swimming was determined in female swiss -Webster mice after (ip) administration of 5 mg/kg
Type: functional
As shown below, each of these compounds has a reported Activity value.
Note: the reply should be a number with no unit written.

1. COCC(CCN1CCN(C2=Nc3ccccc3Sc3ccccc32)CC1)OC (stereo not given); 2
2. c1ccc2c(c1)N=C(N1CCN(CC3CCCO3)CC1)c1ccccc1S2 (stereo not given); 1
3. COCC(CN1CCN(C2=Nc3ccccc3Sc3ccccc32)CC1)OC (stereo not given); 9

State its Activity for this compound: c1ccc2c(c1)N=C(N1CCN(CC3COCCO3)CC1)c1ccccc1S2 (stereo not given)
13

Note Activity for the compound shown: COC(CO)CN1CCN(C2=Nc3ccccc3Sc3ccccc32)CC1 (stereo not given)
2

###

Tested on: Mus musculus
Assay: Antagonism of apomorphine induced swimming was determined in female swiss -Wbster mice after (po) administration of 20 mg/kg
Format: functional
Overview of recorded Activity for various compounds
Just the number, please, no unit attached.

1) OCCOCCN1CCN(C2=Nc3ccc(O)cc3Cc3ccccc32)CC1; 1
2) OCCOCCN1CCN(C2=Nc3cc(Cl)ccc3Oc3ccccc32)CC1; 2
3) OCCOCCN1CCN(C2=Nc3cc(Cl)ccc3Sc3ccccc32)CC1; 1

Read off the recorded Activity for OCCOCCN1CCN(C2=Nc3ccccc3Sc3ccccc32)CC1 [QUETIAPINE]
3

Please report Activity for the following compound: CN1CCN(C2=Nc3ccc(O)cc3Sc3ccccc32)CC1
32

Look up and report measured Activity for this entry: CN1CCN(C2=Nc3cc(Cl)ccc3Nc3ccccc32)CC1 [CLOZAPINE]
3

Read the entry OCCN1CCN(C2=Nc3ccccc3Sc3ccccc32)CC1 and write its reported Activity.
18

Read off the recorded Activity for OCCOCCN1CCN(C2=Nc3ccccc3Cc3ccccc32)CC1
1
